tested.on: VCB (VHL:EloC:EloB) (Homo sapiens)
Sequence (P40337 whole entry): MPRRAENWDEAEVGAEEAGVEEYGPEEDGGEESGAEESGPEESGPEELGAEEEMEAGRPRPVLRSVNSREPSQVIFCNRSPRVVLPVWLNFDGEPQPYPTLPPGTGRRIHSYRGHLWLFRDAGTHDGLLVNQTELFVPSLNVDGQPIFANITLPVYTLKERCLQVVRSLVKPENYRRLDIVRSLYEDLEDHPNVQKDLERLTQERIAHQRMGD
Sequence (Q15370 whole entry partner): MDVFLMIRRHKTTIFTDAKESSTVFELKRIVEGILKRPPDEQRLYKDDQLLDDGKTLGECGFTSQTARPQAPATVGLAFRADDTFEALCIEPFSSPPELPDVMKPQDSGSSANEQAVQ
Sequence (Q15369 whole entry partner): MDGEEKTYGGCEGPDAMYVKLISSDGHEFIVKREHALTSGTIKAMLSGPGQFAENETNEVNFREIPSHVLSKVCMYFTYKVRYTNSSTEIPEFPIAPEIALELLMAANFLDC
method.description: Surface plasmon resonance, binary interaction with VCB
experimental.context: SPR, immobilised VCB, 20 °C, 1 to 1 kinetic model
Procedure: All SPR experiments in this paper were recorded on a Biacore S200 instrument; all protein captures and data collection were at 20 °C. For binary interactions with G6374: a Xantec SAHC 200 M (streptavidin) chip was inserted into the instrument and primed into running buffer [50 mM HEPES (pH 7.4), 150 mM NaCl, 0.001% Tween 20, 0.2% PEG3350, 0.25 mM TCEP, and 2% DMSO]. […] All data were analyzed using Insight software (Cytiva) using a 1 to 1 kinetic binding model.
outcome.measure: Kd (nM)

1. Cc1ncsc1-c1ccc(CNC(=O)[C@@H]2C[C@@H](O)CN2C(=O)[C@@H](NC(=O)CCCCN2CCN([C@H]3CC[C@H](Nc4ncc5ccc(=O)n(C(C)C)c5n4)CC3)CC2)C(C)(C)C)cc1    90.2

* * *

tested.on: IRE1 H579A:VHL (Homo sapiens, UniProt O75460+P40337, H579A)
Construct: N2731
Sequence (O75460 19-977 H579A, one chain of several): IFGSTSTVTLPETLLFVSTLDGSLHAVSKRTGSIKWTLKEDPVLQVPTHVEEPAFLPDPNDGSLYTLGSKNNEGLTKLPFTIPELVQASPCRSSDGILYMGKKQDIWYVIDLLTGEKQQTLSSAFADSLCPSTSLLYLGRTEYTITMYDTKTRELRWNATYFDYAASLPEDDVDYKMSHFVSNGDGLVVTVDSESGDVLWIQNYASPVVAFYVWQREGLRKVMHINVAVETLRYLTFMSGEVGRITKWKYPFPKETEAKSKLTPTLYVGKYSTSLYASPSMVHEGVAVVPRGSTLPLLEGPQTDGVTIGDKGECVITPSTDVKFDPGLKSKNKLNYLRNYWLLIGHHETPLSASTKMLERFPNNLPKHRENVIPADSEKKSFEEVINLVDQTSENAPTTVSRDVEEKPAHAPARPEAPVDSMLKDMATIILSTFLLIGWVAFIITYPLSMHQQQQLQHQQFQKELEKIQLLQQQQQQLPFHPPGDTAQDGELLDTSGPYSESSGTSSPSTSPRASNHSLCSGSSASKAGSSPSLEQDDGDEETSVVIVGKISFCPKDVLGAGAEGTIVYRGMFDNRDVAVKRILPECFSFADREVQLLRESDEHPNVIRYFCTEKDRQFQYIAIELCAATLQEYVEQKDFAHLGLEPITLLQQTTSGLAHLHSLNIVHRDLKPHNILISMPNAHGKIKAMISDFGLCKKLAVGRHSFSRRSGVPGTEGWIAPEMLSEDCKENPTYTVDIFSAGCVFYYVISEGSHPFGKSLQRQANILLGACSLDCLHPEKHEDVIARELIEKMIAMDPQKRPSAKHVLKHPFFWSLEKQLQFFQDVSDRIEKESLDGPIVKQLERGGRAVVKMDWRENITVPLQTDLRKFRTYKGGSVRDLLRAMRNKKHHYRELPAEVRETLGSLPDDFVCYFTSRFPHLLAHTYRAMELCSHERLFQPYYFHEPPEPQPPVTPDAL
Sequence (Q13617 whole entry, one chain of several, further chain): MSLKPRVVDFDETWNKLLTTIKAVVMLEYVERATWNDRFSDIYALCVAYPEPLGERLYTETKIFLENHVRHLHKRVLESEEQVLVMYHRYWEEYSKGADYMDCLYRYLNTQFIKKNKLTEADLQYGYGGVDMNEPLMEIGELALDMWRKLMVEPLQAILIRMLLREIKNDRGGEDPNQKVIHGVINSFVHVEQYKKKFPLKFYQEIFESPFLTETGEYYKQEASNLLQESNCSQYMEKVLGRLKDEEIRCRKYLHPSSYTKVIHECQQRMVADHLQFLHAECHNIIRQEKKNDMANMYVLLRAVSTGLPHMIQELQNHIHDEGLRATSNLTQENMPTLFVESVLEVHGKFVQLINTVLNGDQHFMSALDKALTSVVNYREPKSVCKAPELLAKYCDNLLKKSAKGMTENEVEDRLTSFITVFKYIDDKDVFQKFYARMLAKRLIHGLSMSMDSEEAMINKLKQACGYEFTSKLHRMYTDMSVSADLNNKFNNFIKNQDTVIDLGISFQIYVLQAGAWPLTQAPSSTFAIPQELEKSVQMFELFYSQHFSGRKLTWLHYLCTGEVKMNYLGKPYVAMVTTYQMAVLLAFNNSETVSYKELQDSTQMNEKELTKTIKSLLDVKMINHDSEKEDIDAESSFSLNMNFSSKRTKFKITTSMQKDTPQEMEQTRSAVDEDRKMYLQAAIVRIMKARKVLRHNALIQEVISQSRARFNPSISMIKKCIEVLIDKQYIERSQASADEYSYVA
Sequence (P62877 whole entry, one chain of several, further chain): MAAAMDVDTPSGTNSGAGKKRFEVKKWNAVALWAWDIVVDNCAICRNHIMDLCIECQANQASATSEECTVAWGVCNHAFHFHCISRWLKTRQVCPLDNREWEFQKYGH
method.description: NanoBRET IRE1:VHL interaction, IRE1 H579A, HEK293T cells
outcome.measure: EC50 (nM)

1. Cc1ncsc1-c1ccc(CNC(=O)[C@@H]2C[C@@H](O)CN2C(=O)[C@@H](NC(=O)CCCCN2CCN([C@H]3CC[C@H](Nc4ncc5ccc(=O)n(C(C)C)c5n4)CC3)CC2)C(C)(C)C)cc1 [G6374]    450

* * *

tested.on: UniProt P40337
method.description: Fluorescence polarization displacement of FAM-labeled HIF-1α peptide from VCB
Type: binding
experimental.context: G6374 in the presence of saturating IRE1 (2.4 µM), N=3, mean ± SEM
pIC50: −log10 of the molar value.
outcome.measure: pIC50

1. Cc1ncsc1-c1ccc(CNC(=O)[C@@H]2C[C@@H](O)CN2C(=O)[C@@H](NC(=O)CCCCN2CCN([C@H]3CC[C@H](Nc4ncc5ccc(=O)n(C(C)C)c5n4)CC3)CC2)C(C)(C)C)cc1 [G6374]    6.31

* * *

tested.on: IRE1:VHL (Homo sapiens, UniProt O75460+P40337)
Sequence (O75460 19-977, one chain of several): as the sequence (O75460 19-977 H579A, one chain of several) above, with A561H counted along it
Sequence (Q13617 whole entry partner, one chain of several): as the sequence (Q13617 whole entry, one chain of several, further chain) above
Sequence (P62877 whole entry partner, one chain of several): as the sequence (P62877 whole entry, one chain of several, further chain) above
method.description: NanoBRET IRE1:VHL interaction, WT IRE1, HEK293T cells
outcome.measure: EC50 (nM)

1) Cc1ncsc1-c1ccc(CNC(=O)[C@@H]2C[C@@H](O)CN2C(=O)[C@@H](NC(=O)CCCCN2CCN([C@H]3CC[C@H](Nc4ncc5ccc(=O)n(C(C)C)c5n4)CC3)CC2)C(C)(C)C)cc1 [G6374]    110
